From: patent US11053304

Molecular target: SARS-CoV-2 Receptor Binding Domain (RBD) protein (SARS-CoV-2, UniProt P0DTC2 319-541)
Assay: SPR, scFv captured via anti-V5, RBD as analyte
Note to self: values exactly at 200000 M⁻¹ s⁻¹ are rule met. So kon at or above 200000 M⁻¹ s⁻¹ is rule met, below is rule not met.

BINDER	ASSIGNED_CATEGORY
COVID19_P07_G06 (scFv, V domains shown) VH: EVQLVESGGGLVQPGGSLRLSCAASGFTFSSYAMHWVRQAPGKGLEWVSAIGAGGGTYYADSVKGRFTISRDNSKNTLYLQMNSLRAEDTAVYYCVTNLDNSRDYFPHYFHDMDVWGQGTLVTVSS VL: DIVMTQSPLSLPVTPGEPASISCRSSQSLLHSNGYNYLDWYLQKPGQSPQLLIYGASTRATGVPDRFSGSGSGTDFTLKISRVEAEDVGVYYCMQTLQTPRFGGGTKVEIKR	rule not met
COVID19_P08_G02 (scFv, V domains shown) VH: EVQLVESGGGLVQPGGSLRLSCAASGFTFSSYGMHWIRQAPGKGLEWVSAVSASGDRTHYADSVKGRFTISRDNSKNTLYLQMNSLRAEDTAVYYCVTNLDNSRDYFPHYFHDMDVWGQGTLVTVSS VL: DIVMTQSPLSLPVTPGEPASISCRSSQSLVHSDGYTYLNWYLQKPGQSPQLLIYVGSYRASGVPDRFSGSGSGTDFTLKISRVEAEDVGVYYCMQASQWPPTFGGGTKVEIKR	rule not met

Is kon at least 200000 M⁻¹ s⁻¹? Consider COVID19_P19_B08 (scFv, V domains shown) VH: EVQLVESGGGLVQPGGSLRLSCAASGFTFSDHYMDWVRQAPGKGLEWVAAIGASGESTYYADSVKGRFTISRDNSKNTLYLQMNSLRAEDTAVYYCVTQRDNSRDYFPLWFHDMDVWGQGTLVTVSS VL: DIVMTQSPLSLPVTPGEPASISCRSSQSLLYSDGDTYLDWYLQKPGQSPQLLIYLGSIRAPGVPDRFSGSGSGTDFTLKISRVEAEDVGVYYCMQSIQTPWTFGGGTKVEIKR
rule met

Param item: COVID19_P08_G07 (scFv, V domains shown) VH: EVQLVESGGGLVQPGGSLRLSCAASGFTFSTYGMHWVRQAPGKGLEWVSTISGNGVSTSYADSVKGRFTISRDNSKNTLYLQMNSLRAEDTAVYYCVTNMDNSRDYFPHYFHDMDVWGQGTLVTVSS VL: DIVMTQSPLSLPVTPGEPASISCRSSQSLVYSDGYTYLNWYLQKPGQSPQLLIYQVSNRASGVPDRFSGSGSGTDFTLKISRVEAEDVGVYYCMQALQTPALTFGGGTKVEIKR
rule not met

Another binder: COVID19_P19_B04 (scFv, V domains shown) VH: EVQLVESGGGLVQPGGSLRLSCAASGITFNNYAMTWVRQAPGKGLEWVSGISGSGGSTYYADSVKGRFTISRDNSRNTLYLQMNSLRAEDTAVYYCVTQRDNPVDYFPHYFHDMDVWGQGTLVTVSS VL: DIVMTQSPLSLPVTPGEPASISCRSSQSLLYSDGDTYLDWYLQKPGQSPQLLIYLGSIRAPGVPDRFSGSGSGTDFTLKISRVEAEDVGVYYCMQALQVPWTFGGGTKVEIKR
rule met

Would you mind doing COVID19_P08_D04 (scFv, V domains shown) VH: EVQLVESGGGLVQPGGSLRLSCAASGFIFSSYAMNWVRQAPGKGLEWVSGISGSGGGAYYADSVKGRFTISRDNSKNTLYLQMNSLRAEDTAVYYCVTNLDNSRDYFPHYFHDMDVWGQGTLVTVSS VL: DIVMTQSPLSLPVTPGEPASISCRSSQSLLQSNGYNYMDWYLQKPGQSPQLLIYLTSNRAAGVPDRFSGSGSGTDFTLKISRVEAEDVGVYYCQQSYGPPLTFGGGTKVEIKR as well?
rule not met

What do you get for COVID19_P20_G06 (scFv, V domains shown) VH: EVQLVESGGGLVQPGGSLRLSCAASGFTFSNSDMNWVRQAPGKGLEWVSGISGGGAGTYYADSVKGRFTISRDNSKNTLYLQMNSLRAEDTAVYYCVTYRDNSRDYFPHYFHDMDVWGQGTLVTVSS VL: DIVMTQSPLSLPVTPGEPASISCRSSQSLVHSNGDTYLDWYLQKPGQSPQLLIYLGSIRAPGVPDRFSGSGSGTDFTLKISRVEAEDVGVYYCQQSYSTPWTFGGGTKVEIKR ?
rule not met

And what about the binder COVID19_P19_C03 (scFv, V domains shown) VH: EVQLVESGGGLVQPGGSLRLSCAASGFTFSNSDMNWVRQAPGKGLEWVSRINGDGSTTGYADSVKGRFTISRDNSKNTLYLQMNSLRAEDTAVYYCVTTGDNSRDYFPHYFHDMDVWGQGTLVTVSS VL: DIVMTQSPLSLPVTPGEPASISCRSSQSLLHSNGDTYLDWYLQKPGQSPQLLIYLGSIRAPGVPDRFSGSGSGTDFTLKISRVEAEDVGVYYCQQSYITPWTFGGGTKVEIKR ?
rule not met
